Where do these numbers come from? They come from patent US20230060388A1.

- system: T1, recombinant human TIGIT extracellular domain (ECD) (human, UniProt Q495A1 22-138)
- T1 construct: also called h-TIGIT ECD; recombinant human TIGIT ECD
- T1 sequence: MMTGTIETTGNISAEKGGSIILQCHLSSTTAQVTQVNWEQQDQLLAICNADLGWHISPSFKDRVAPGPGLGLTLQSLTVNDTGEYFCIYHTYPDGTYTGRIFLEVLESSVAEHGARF
- experiment_description: blocking ELISA, competitor PVR
Examples of binders with documented inhibition of PVR binding to h-TIGIT follow.

binder	inhibition of PVR binding to h-TIGIT
1G1 VHH (VHH, VHH in E. coli supernatant) VHH: QVQLVESGGGLVQAGDSLRLSCVASGPSFSSYPMGWFRQGPGKERESVAAISSDGRFTYYAASVKGRFTISKDNAKSAAFLQMNSLKPEDTAVYYCAARDSGSGYYSRAQWYDYWGQGTLVTVSS	> 90%

Here's the next entry for you.
Any idea what its inhibition of PVR binding to h-TIGIT is? The binder is 3G6 VHH (VHH, VHH in E. coli supernatant) VHH: QVQLVESGGGLVQAGGSLSLSCAASGSIFGISVMGWYRQAPGEQRDLVATLTRAGLTTYGDSVKGRFSISRDSAKNTVYLQMNNLKPEDTAVYYCHANIMESAASTFGRYWGQGTQVTVSS
> 90%
